# studyTarget: T1, Bud14, P27637
# T1 sequence (P27637 247-328, looked up): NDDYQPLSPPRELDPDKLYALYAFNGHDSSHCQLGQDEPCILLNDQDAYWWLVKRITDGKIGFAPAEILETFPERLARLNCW
# experimentalDetails: SPOT array
# conditionContext: median of control spots 956
# note: boundary value 5 maps to 0; SPOT intensity below it maps to 1

// known answers, use as guide
KKIRLIFTYPSTVGR: 0
AHFQPQRTAPKPPIS: 1
DTFLPPPPPPPSNFE: 1
GDHPKGPPPPPPPPD: 1

Here is another binder to look at.
Query: Would you kindly verify if SPOT intensity of "RMVRRRPLRVQFSAR" is strictly less than 5?
Reply: 0
